tested on: MS2 coat protein; experiment: apparent KD of MS2 coat protein; designed switch direction (-1 OFF switch, 1 ON switch): -1; higher = weaker reporter binding; conditions: input ligand: none
RESULT TYPE: apparent KD of MS2 coat protein (µM)

SEQUENCE DATA	TARGET ENTITY	OBSERVED VALUE
GUCGUGCGGCUUUGCUGUACGAGUACAUGAGGAUCACCCAUGUAGGAUAUGGUACGCUUUGCGUGCCAGAAGGGCGUGCGUUGG [salish99_ExNG3_r04_006] (Eterna round: R96, puzzle: Exclusion NG 3)	MS2 coat protein	0.0299
UAUCAUGUAGGAUAUACGUAGCUAUGACCCUCGAGAACUAUACAUGAGGAUCACCCAUGUAGAAGGGCGACUUU [Eternabot (L1) Solution 34] (Eterna round: R97, puzzle: Exclusion 2)	MS2 coat protein	0.0172
CUUAUGUGAGGAUAUGCCUGGCCGUGAGGCCAAAUUGAAUUGCAGAAGGCACAUGAGGAUCACCCAUGUGCGGG [jl-ex4-4.66 ViennaUCT mod] (Eterna round: R97, puzzle: Exclusion 4)	MS2 coat protein	0.0502
GACACCAAAGGAUAUACAUGAGGAUCACCCAUGUGCUGCAAAAGCUGAGCUCAAAUGUGUAGAAGGUUGAAAUA [Eternabot (Original) Solution 40] (Eterna round: R97, puzzle: Exclusion 3)	MS2 coat protein	0.0316
UGAUUUGGAGGAUAUACAUGAGGAUCACCCAUGUAAAGGCCGUGGGUCGAACCCGAGAGUAGAAGGUCGAGAGA [Eternabot (L1) Solution 30] (Eterna round: R97, puzzle: Exclusion 3)	MS2 coat protein	0.0917
GUCAGCUCGUGAGGAUAUACAUGCGUGCUUCGGCACGAAUUUAAGAUCACAUGAGGAUCACCCAUGUAGAAGGCACGAGCUGAU [ENG2/3-A2] (Eterna round: R96, puzzle: Exclusion NG 2)	MS2 coat protein	0.797
GCGGACUUGAACGUGAGUUCAGAGACAUGAGGAUCACCCAUGUAGGAUAUCGAUUCGAAACGAAUCGAGAAGGGCAUGGUCCGC [JL denovo 14] (Eterna round: R96, puzzle: Exclusion NG 3)	MS2 coat protein	0.0288
AAUAAGGGAGGAUAUGCGGAACGGUUUGUUCUCAGUGAGGCACAUGAGGAUCACCCAUGUAGAAGGCCCGGCAA [Orinar] (Eterna round: R96, puzzle: Exclusion 2)	MS2 coat protein	0.0174
CCGGAAAGGAAGGAUAUGCUAGACGAUAGUCUAGCAGAAGGUCCUACAUGAGGAUCACCCAUGUGUCCUCCCGG [Mat - Exclusion 6 - Eli Mod - D43] (Eterna round: R97, puzzle: Exclusion 6)	MS2 coat protein	0.182
